target: serotonin 3 (Cavia porcellus, UniProt O70212); construct: from tissue; host or cells: nonterminal ileum of Hartley male guinea pig; test: Antagonism against 2-methyl-serotonin-induced contraction of ileum (serotonin 3 antagonism); format: cell-based, guinea pig (Hartley male); details: guinea pig nonterminal ileum, vs 2-methylserotonin, 30 minutes with test compound, 37° C.; read-out: pA2 (converted)
Sequence (O70212 20-490): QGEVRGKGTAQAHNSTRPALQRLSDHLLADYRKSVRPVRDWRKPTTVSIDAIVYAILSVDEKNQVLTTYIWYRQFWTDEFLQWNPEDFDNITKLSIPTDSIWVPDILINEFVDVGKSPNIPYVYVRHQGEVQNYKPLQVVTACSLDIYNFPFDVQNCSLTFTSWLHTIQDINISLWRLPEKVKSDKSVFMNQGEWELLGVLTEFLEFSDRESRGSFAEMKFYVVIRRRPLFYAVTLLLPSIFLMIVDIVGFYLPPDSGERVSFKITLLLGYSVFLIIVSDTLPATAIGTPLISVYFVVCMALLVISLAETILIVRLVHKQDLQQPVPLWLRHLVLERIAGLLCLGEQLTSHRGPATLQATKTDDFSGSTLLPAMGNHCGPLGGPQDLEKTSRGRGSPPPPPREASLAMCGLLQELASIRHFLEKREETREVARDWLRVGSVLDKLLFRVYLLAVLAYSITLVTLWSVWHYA
Structures can show the parent of a compound that is named as a salt.
ENDPOINT_NAME: Kb

Entry under test: CC#C[C@H](C)Oc1cc(N)c(Cl)cc1C(=O)NC1CCN2CCCC1C2 (single isomer, unassigned) [31 fraction 2] . Its Kb was 5.01 nM

Entry under test: CC#C[C@H](C)Oc1cc(N)c(Cl)cc1C(=O)NC1CCN2CCOC1C2 (single isomer, unassigned) [20 fraction 1] . Its Kb was 63.1 nM

Entry under test: COc1cc(N)c(Cl)cc1C(=O)NC1CCN2CCCC1C2 (stereo not drawn) [BRL 24924, Renzapride, reference compound] . Its Kb was 251 nM

Entry under test: CC#C[C@H](C)Oc1cc(N)c(Cl)cc1C(=O)NC1CCN2CCCC1C2 (stereo partly drawn) [Example 6, hydrochloride] . Its Kb was 20 nM

Entry under test: CC#C[C@H](C)Oc1cc(N)c(Cl)cc1C(=O)NC1CCN2CCOC1C2 (single isomer, unassigned) [20 fraction 2] . Its Kb was 12.6 nM

Entry under test: CC#C[C@H](C)Oc1cc(N)c(Cl)cc1C(=O)NC1CCN2CCCC1C2 (single isomer, unassigned) [31 fraction 1] . Its Kb was 63.1 nM

* * *

Exercise: state measured Percentage increment of gastric emptying function (%) for each of the molecules provided.
system: gastric emptying function; experiment: Activity for increasing gastric emptying function; type: in vivo, rat (Fischer male); conditions: 0.01 mg/kg, oral, one hour before test food; *: minimum effective dose
Unit % implied. Number only.

Entry under test: CC#C[C@H](C)Oc1cc(N)c(Cl)cc1C(=O)NC1CCN2CCCC1C2 (single isomer, unassigned) . Its Percentage increment of gastric emptying function (%) was 4.5

Entry under test: CC#C[C@H](C)Oc1cc(N)c(Cl)cc1C(=O)NC1CCN2CCOC1C2 (single isomer, unassigned) . Its Percentage increment of gastric emptying function (%) was 3.9

Entry under test: CC#C[C@H](C)Oc1cc(N)c(Cl)cc1C(=O)NC1CCC2CCC1N2C (single isomer, unassigned) . Its Percentage increment of gastric emptying function (%) was 14.4

Entry under test: CC#C[C@H](C)Oc1cc(N)c(Cl)cc1C(=O)NC1CC2COCC(C1)N2C (stereo partly shown) . Its Percentage increment of gastric emptying function (%) was 20.5

* * *

biological target: serotonin 4 (Rattus norvegicus, UniProt Q62758); construct: The esophagus of a rat was extirpated and freed from the outer tunica propria to obtain the muscular layer of mucosa; from tissue; host or cells: muscular layer of mucosa of rat esophagus; experiment: Effect of relaxing the contraction of muscular layer of esophageal mucosa of rat by stimulation with carbachol (activity of serotonin 4 as agonist); assay type: cell-based; conditions: 50% relaxation of maximum contraction caused by 1 μM carbachol, cumulative addition, 37° C.; read-out: Effect of relaxing the muscular layer of esophageal mucosa of rat EC50
Sequence (Q62758 whole entry): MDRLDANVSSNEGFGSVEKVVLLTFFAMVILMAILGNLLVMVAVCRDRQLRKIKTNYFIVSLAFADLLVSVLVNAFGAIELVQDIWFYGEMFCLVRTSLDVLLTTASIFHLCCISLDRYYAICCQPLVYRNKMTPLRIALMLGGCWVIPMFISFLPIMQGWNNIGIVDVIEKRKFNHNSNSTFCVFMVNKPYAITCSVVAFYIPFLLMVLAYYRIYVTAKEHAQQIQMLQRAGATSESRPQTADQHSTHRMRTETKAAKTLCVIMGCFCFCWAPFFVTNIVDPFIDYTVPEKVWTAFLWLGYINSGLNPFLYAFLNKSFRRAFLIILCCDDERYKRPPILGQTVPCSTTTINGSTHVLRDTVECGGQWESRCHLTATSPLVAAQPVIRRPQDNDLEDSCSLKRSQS
Counter-ions that a name gives are not always drawn.
ENDPOINT_NAME: pEC50
A value of pEC50 is the negative decimal logarithm of a concentration given in moles per litre.

// compound CC#C[C@H](C)Oc1cc(N)c(Cl)cc1C(=O)NC1C2CCC1CN(C)C2 (stereo partly shown) [Example 35, hydrochloride] , assay serotonin 4 (Rattus norvegicus, UniProt Q62758), pEC50 value: 5.70

// compound CC#C[C@H](C)Oc1cc(N)c(Cl)cc1C(=O)NC1C2CC3CC1CN(C3)C2 (stereo partly shown) [Example 55, hydrochloride] , assay serotonin 4 (Rattus norvegicus, UniProt Q62758), pEC50 value: 6.19

// compound CC#C[C@H](C)Oc1cc(N)c(Cl)cc1C(=O)NC1CCN2CCCC1C2 (stereo partly shown) [Example 6, hydrochloride] , assay serotonin 4 (Rattus norvegicus, UniProt Q62758), pEC50 value: 6.96

// compound CC#C[C@H](C)Oc1cc(N)c(Cl)cc1C(=O)NC1CCN2CCOC1C2 (single isomer, unassigned) [20 fraction 1] , assay serotonin 4 (Rattus norvegicus, UniProt Q62758), pEC50 value: 7.22

// compound CC#C[C@H](C)Oc1cc(N)c(Cl)cc1C(=O)NC1CCN2CCCC1C2 (single isomer, unassigned) [31 fraction 1] , assay serotonin 4 (Rattus norvegicus, UniProt Q62758), pEC50 value: 7.36

// compound CC#C[C@H](C)Oc1cc(N)c(Cl)cc1C(=O)NC1CCC2CCC1N2C (single isomer, unassigned) [53 fraction 2] , assay serotonin 4 (Rattus norvegicus, UniProt Q62758), pEC50 value: 6.51

// compound CC#CC(CCOCC)Oc1cc(N)c(Cl)cc1C(=O)NC1CC2CCC(C1)N2C (stereo not shown) [Example 42, hydrochloride] , assay serotonin 4 (Rattus norvegicus, UniProt Q62758), pEC50 value: 5.21

// compound CC#C[C@H](C)Oc1cc(N)c(Cl)cc1C(=O)NC1CCC2CCC1N2C (single isomer, unassigned) [53 fraction 2-2] , assay serotonin 4 (Rattus norvegicus, UniProt Q62758), pEC50 value: 6.74

// compound CC#C[C@H](C)Oc1cc(N)c(Cl)cc1C(=O)NC1CCN2CCOC1C2 (stereo partly shown) [Example 15, hydrochloride] , assay serotonin 4 (Rattus norvegicus, UniProt Q62758), pEC50 value: 7.46

// compound CC#C[C@H](C)Oc1cc(N)c(Cl)cc1C(=O)NC1CC2CCCC(C1)N2C (stereo partly shown) [Example 4, hydrochloride] , assay serotonin 4 (Rattus norvegicus, UniProt Q62758), pEC50 value: 5.89

// compound CC#C[C@H](C)Oc1cc(N)c(Cl)cc1C(=O)NC1CCN2CCOC1C2 (single isomer, unassigned) [20 fraction 2] , assay serotonin 4 (Rattus norvegicus, UniProt Q62758), pEC50 value: 7.48

// compound COc1cc(N)c(Cl)cc1C(=O)NC1CCN2CCCC1C2 (stereo not shown) [BRL 24924, Renzapride, reference compound] , assay serotonin 4 (Rattus norvegicus, UniProt Q62758), pEC50 value: 6.52

// compound CC#C[C@H](C)Oc1cc(N)c(Cl)cc1C(=O)NC1CCN2CCCC1C2 (single isomer, unassigned) [31 fraction 2] , assay serotonin 4 (Rattus norvegicus, UniProt Q62758), pEC50 value: 6.72

// compound CC#C[C@H](C)Oc1cc(N)c(Cl)cc1C(=O)NC1CCC2CCC1N2C (single isomer, unassigned) [53 fraction 2-1] , assay serotonin 4 (Rattus norvegicus, UniProt Q62758), pEC50 value: 6.52
